Test system: L1210
Assay: Inhibitory activity against incorporation of deoxy-[methyl.3H-]-thymidine (dThd) into the DNA of murine leukemia L1210 cell cultures
Assay type: functional
Settings: Mus musculus, read-out: ID50 (the source's name)
quantity_name: IC50 (µg/mL)
Just the number please, in µg/mL, no unit attached.

// solved cases for IC50 follow
CCCCC#Cc1cn([C@H]2C[C@H](O)[C@@H](CO)O2)c(=O)[nH]c1=O    47
CCCCCC#Cc1cn([C@H]2C[C@H](O)[C@@H](CO)O2)c(=O)[nH]c1=O    45
O=c1[nH]c(=O)n([C@H]2C[C@H](O)[C@@H](CO)O2)cc1C#Cc1ccccc1    120
CCCC/C=C\c1cn([C@H]2C[C@H](O)[C@@H](CO)O2)c(=O)[nH]c1=O    39

Consider the compound Cc1ccc(S(=O)(=O)OCCC#Cc2cn([C@H]3C[C@H](O)[C@@H](CO)O3)c(=O)[nH]c2=O)cc1 and give its measured IC50. 112

---

Tested on: PRK
Test: Concentration required to reduce Vaccinia virus induced cytopathogenicity in primary rabbit kidney (PRK) cell cultures
Format: functional
Conditions: Orthopoxvirus vaccinia, read-out: ID50 (the source's name)
quantity_name: IC50 (µg/mL)
Just the number please, in µg/mL, no unit attached.

Consider the compound CCCCCC#Cc1cn([C@H]2C[C@H](O)[C@@H](CO)O2)c(=O)[nH]c1=O and give its measured IC50. 70

Consider the compound Cc1ccc(S(=O)(=O)OCCC#Cc2cn([C@H]3C[C@H](O)[C@@H](CO)O3)c(=O)[nH]c2=O)cc1 and give its measured IC50. 10

Consider the compound O=c1[nH]c(=O)n([C@H]2C[C@H](O)[C@@H](CO)O2)cc1C#CCCCO and give its measured IC50. 125

Consider the compound CC#Cc1cn([C@H]2C[C@H](O)[C@@H](CO)O2)c(=O)[nH]c1=O and give its measured IC50. 0.4

Consider the compound COCC#Cc1cn([C@H]2C[C@H](O)[C@@H](CO)O2)c(=O)[nH]c1=O and give its measured IC50. 2

Consider the compound CC(C)(C)C#Cc1cn([C@H]2C[C@H](O)[C@@H](CO)O2)c(=O)[nH]c1=O and give its measured IC50. 7

Consider the compound CC#Cc1cn(C2O[C@H](CO)[C@@H](O)[C@@H]2O)c(=O)[nH]c1=O (some centres undefined) and give its measured IC50. 200

---

Test system: PRK
Assay: Concentration required to reduce Vaccinia virus induced cytopathogenicity in primary rabbit kidney (PRK) cell cultures
Type: functional
Settings: Orthopoxvirus vaccinia, read-out: ID50 (the source's name)
Just a reminder that ties go to NO: only IC50 strictly below 10 µg/mL counts as YES.

Given CCCCCCc1cn([C@H]2C[C@H](O)[C@@H](CO)O2)c(=O)[nH]c1=O , is recorded IC50 strictly lower than 10 µg/mL? NO

Given C#Cc1cn([C@H]2C[C@H](O)[C@@H](CO)O2)c(=O)[nH]c1=O , is recorded IC50 strictly lower than 10 µg/mL? YES

Given O=c1[nH]c(=O)n([C@H]2C[C@H](O)[C@@H](CO)O2)cc1/C=C/Br [BRIVUDINE] , is recorded IC50 strictly lower than 10 µg/mL? YES

Given CCC#Cc1cn([C@H]2C[C@H](O)[C@@H](CO)O2)c(=O)[nH]c1=O , is recorded IC50 strictly lower than 10 µg/mL? YES

Given CCCC/C=C\c1cn([C@H]2C[C@H](O)[C@@H](CO)O2)c(=O)[nH]c1=O , is recorded IC50 strictly lower than 10 µg/mL? NO

Given O=c1[nH]c(=O)n([C@H]2C[C@H](O)[C@@H](CO)O2)cc1I [IDOXURIDINE] , is recorded IC50 strictly lower than 10 µg/mL? YES

Given CCCC#Cc1cn([C@H]2C[C@H](O)[C@@H](CO)O2)c(=O)[nH]c1=O , is recorded IC50 strictly lower than 10 µg/mL? YES

Given CCC#Cc1cn(C2O[C@H](CO)[C@@H](O)[C@@H]2O)c(=O)[nH]c1=O (stereo partly specified) , is recorded IC50 strictly lower than 10 µg/mL? NO

Given CCCCC#Cc1cn([C@H]2C[C@H](O)[C@@H](CO)O2)c(=O)[nH]c1=O , is recorded IC50 strictly lower than 10 µg/mL? NO

---

System: PRK
Test: Inhibitory activity against incorporation of deoxy-[methyl.3H-]-thymidine (dThd) into the DNA of uninfected primary rabbit kidney (PRK) cell cultures
Format: functional
Settings: Oryctolagus cuniculus, read-out: ID50 (the source's name)
// reported IC50 for each item listed
Just the number please, in µg/mL, no unit attached.

Consider the compound CCCC#Cc1cn([C@H]2C[C@H](O)[C@@H](CO)O2)c(=O)[nH]c1=O and give its measured IC50. 9

Consider the compound CCCCC#Cc1cn([C@H]2C[C@H](O)[C@@H](CO)O2)c(=O)[nH]c1=O and give its measured IC50. 45

Consider the compound O=c1[nH]c(=O)n([C@H]2C[C@H](O)[C@@H](CO)O2)cc1/C=C/Br and give its measured IC50. 90

Consider the compound CCC#Cc1cn([C@H]2C[C@H](O)[C@@H](CO)O2)c(=O)[nH]c1=O and give its measured IC50. 13

Consider the compound Cc1ccc(S(=O)(=O)OCCC#Cc2cn([C@H]3C[C@H](O)[C@@H](CO)O3)c(=O)[nH]c2=O)cc1 and give its measured IC50. 13

Consider the compound C#Cc1cn([C@H]2C[C@H](O)[C@@H](CO)O2)c(=O)[nH]c1=O and give its measured IC50. 3

Consider the compound CC#Cc1cn([C@H]2C[C@H](O)[C@@H](CO)O2)c(=O)[nH]c1=O and give its measured IC50. 3

Consider the compound O=c1[nH]c(=O)n([C@H]2C[C@H](O)[C@@H](CO)O2)cc1I and give its measured IC50. 1.5

Consider the compound O=c1[nH]c(=O)n([C@H]2C[C@H](O)[C@@H](CO)O2)cc1C#Cc1ccccc1 and give its measured IC50. 23

---

Tested on: PRK
Experiment: Inhibitory activity against incorporation of deoxy-[methyl.3H-]-thymidine (dThd) into the DNA of uninfected primary rabbit kidney (PRK) cell cultures
Format: functional
Details: Oryctolagus cuniculus, read-out: ID50 (the source's name)
Just a reminder that ties go to 0.0: only IC50 strictly below 70 µg/mL counts as 1.0.

CCCCCCc1cn([C@H]2C[C@H](O)[C@@H](CO)O2)c(=O)[nH]c1=O    1.0
CC(C)(C)C#Cc1cn([C@H]2C[C@H](O)[C@@H](CO)O2)c(=O)[nH]c1=O    1.0
O=c1[nH]c(=O)n([C@H]2C[C@H](O)[C@@H](CO)O2)cc1C#CCCCO    0.0

Given CCCCCC#Cc1cn([C@H]2C[C@H](O)[C@@H](CO)O2)c(=O)[nH]c1=O , is recorded IC50 strictly lower than 70 µg/mL? 1.0

Given CC(C)(C)C#Cc1cn(C2O[C@H](CO)[C@@H](O)[C@H]2O)c(=O)[nH]c1=O (stereo partly specified) , is recorded IC50 strictly lower than 70 µg/mL? 0.0

Given CCCC/C=C\c1cn([C@H]2C[C@H](O)[C@@H](CO)O2)c(=O)[nH]c1=O , is recorded IC50 strictly lower than 70 µg/mL? 1.0

Given CC#Cc1cn(C2O[C@H](CO)[C@@H](O)[C@@H]2O)c(=O)[nH]c1=O (stereo partly specified) , is recorded IC50 strictly lower than 70 µg/mL? 0.0

Given O=c1[nH]c(=O)n([C@H]2C[C@H](O)[C@@H](CO)O2)cc1C#CCCO , is recorded IC50 strictly lower than 70 µg/mL? 0.0

Given COCC#Cc1cn([C@H]2C[C@H](O)[C@@H](CO)O2)c(=O)[nH]c1=O , is recorded IC50 strictly lower than 70 µg/mL? 1.0

Given CCC#Cc1cn(C2O[C@H](CO)[C@@H](O)[C@@H]2O)c(=O)[nH]c1=O (stereo partly specified) , is recorded IC50 strictly lower than 70 µg/mL? 0.0

---

System: L1210
Assay: Inhibitory activity against incorporation of deoxy-[methyl.3H-]-thymidine (dThd) into the DNA of murine leukemia L1210 cell cultures
Type: functional
Details: Mus musculus, read-out: ID50 (the source's name)
quantity_name: IC50

// solved cases for IC50 follow
CC(C)(C)C#Cc1cn(C2O[C@H](CO)[C@@H](O)[C@H]2O)c(=O)[nH]c1=O (stereo partly drawn)    > 1000 µg/mL
CCC#Cc1cn(C2O[C@H](CO)[C@@H](O)[C@@H]2O)c(=O)[nH]c1=O (stereo partly drawn)    > 1000 µg/mL

# evaluate next
Consider the compound CC#Cc1cn(C2O[C@H](CO)[C@@H](O)[C@@H]2O)c(=O)[nH]c1=O (stereo partly drawn) and give its measured IC50. > 1000 µg/mL
